Provide the recorded IC50 for the entries that follow.
Molecular target: Prostaglandin G/H synthase 2 (Homo sapiens, UniProt P35354)
Sequence (P35354 whole entry): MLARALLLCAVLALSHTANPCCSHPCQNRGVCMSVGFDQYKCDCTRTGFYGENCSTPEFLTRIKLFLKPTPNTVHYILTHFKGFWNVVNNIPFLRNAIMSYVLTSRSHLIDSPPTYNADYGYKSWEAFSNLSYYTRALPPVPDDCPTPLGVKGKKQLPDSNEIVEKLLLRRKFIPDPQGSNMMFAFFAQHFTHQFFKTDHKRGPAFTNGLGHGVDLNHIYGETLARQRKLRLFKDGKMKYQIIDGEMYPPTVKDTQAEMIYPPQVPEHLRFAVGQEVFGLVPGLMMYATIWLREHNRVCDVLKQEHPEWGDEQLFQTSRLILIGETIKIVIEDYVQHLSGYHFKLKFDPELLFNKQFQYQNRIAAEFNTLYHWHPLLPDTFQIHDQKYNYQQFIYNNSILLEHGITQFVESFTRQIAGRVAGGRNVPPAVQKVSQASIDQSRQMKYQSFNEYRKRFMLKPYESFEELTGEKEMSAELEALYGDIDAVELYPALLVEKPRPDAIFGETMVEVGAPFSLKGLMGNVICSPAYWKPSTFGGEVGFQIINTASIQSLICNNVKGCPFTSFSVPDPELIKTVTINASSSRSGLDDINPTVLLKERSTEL
Experiment: Inhibition of human recombinant COX-2 using arachidonic acid as substrate preincubated for 15 mins followed by substrate addition and measured after 5 mins by […]-based fluorescence assay

Query: Dear colleague, I am looking for the recorded IC50 of the following compound: `O=[N+]([O-])c1ccc(-n2c(-c3ccc(Br)cc3)nc3ccccc32)cc1`
Result: 102 µM

Query: Dear colleague, I am looking for the recorded IC50 of the following compound: `Nc1ccc(-n2c(-c3ccc(Cl)cc3)nc3ccccc32)cc1`
Result: 193 µM

Query: Dear colleague, I am looking for the recorded IC50 of the following compound: `Nc1ccc(-c2nc3ccccc3n2-c2ccc(N)cc2)cc1`
Result: 173 µM

Query: Dear colleague, I am looking for the recorded IC50 of the following compound: `O=[N+]([O-])c1ccc(-n2c(-c3ccccc3)nc3ccccc32)cc1`
Result: 162 µM
